tested on: Nucleotide-binding oligomerization domain-containing protein 1 (Homo sapiens, UniProt Q9Y239)
Sequence (Q9Y239 whole entry, the tested form may be a part): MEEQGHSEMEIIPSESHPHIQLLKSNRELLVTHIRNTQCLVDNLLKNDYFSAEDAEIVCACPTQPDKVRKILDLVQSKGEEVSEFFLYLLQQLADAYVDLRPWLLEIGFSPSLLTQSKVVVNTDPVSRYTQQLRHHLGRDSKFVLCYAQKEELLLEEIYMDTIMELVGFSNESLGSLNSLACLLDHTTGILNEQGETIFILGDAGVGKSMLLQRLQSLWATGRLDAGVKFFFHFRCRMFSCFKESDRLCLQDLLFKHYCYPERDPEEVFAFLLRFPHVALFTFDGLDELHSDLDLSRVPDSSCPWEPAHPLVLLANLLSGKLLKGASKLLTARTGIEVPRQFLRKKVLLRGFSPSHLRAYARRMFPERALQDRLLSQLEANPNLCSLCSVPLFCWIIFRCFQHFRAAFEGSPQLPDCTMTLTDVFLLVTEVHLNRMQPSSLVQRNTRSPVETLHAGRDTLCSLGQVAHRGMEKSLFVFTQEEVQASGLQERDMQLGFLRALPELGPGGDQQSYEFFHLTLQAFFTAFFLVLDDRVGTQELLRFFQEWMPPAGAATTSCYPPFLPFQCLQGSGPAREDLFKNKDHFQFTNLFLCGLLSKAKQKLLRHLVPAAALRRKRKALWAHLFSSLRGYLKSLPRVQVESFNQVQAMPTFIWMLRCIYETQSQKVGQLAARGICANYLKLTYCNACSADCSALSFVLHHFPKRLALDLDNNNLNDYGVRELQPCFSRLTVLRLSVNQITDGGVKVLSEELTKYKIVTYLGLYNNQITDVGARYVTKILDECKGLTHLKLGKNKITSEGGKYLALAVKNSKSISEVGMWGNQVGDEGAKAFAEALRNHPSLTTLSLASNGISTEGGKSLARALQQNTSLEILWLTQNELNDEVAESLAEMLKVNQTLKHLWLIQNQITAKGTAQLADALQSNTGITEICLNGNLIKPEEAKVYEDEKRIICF
experiment summary: Antagonist activity at human NOD1 expressed in HEK-Blue cells assessed as decrease in SEAP secretion incubated for 3 hrs followed by C12-iE-DAP stimulation for 20 hrs by spectrophotometry
Type: cell-based, HEK-Blue hNOD1
Please provide measured IC50 for the entries that follow.
Give the value in nM but do not write nM after it.

// fetch IC50 given entry "O=c1c2cc(Cl)ncc2nc(Cl)n1-c1ccc(Cl)c(NS(=O)(=O)c2ccccc2F)c1"
1.8

// fetch IC50 given entry "N#Cc1ccc2nc(Cl)n(-c3ccc(Cl)c(NS(=O)(=O)c4c(F)cccc4F)c3)c(=O)c2c1"
2.2

// fetch IC50 given entry "CS(=O)(=O)c1ccc2nc(Cl)n(-c3ccc(Cl)c(NS(=O)(=O)c4ccccc4F)c3)c(=O)c2c1"
4.4

// fetch IC50 given entry "O=c1c2cc(Cl)ncc2nc(Cl)n1-c1ccc(Cl)c(NS(=O)(=O)N2CCCCC2)c1"
126

// fetch IC50 given entry "O=c1c2cc(Cl)ccc2nc(C(F)(F)F)n1-c1ccc(Cl)c(NS(=O)(=O)c2ccccc2F)c1"
68

// fetch IC50 given entry "Nc1nc2ccc(Cl)cc2c(=O)n1-c1ccc(Cl)c(NS(=O)(=O)c2ccccc2F)c1"
44

// fetch IC50 given entry "Cc1nc2ccc(Cl)cc2c(=O)n1-c1ccc(Cl)c(N2Cc3ccccc3S2(=O)=O)c1"
11200

// fetch IC50 given entry "CS(=O)(=O)c1ccc2nc(Cl)n(-c3ccc(Cl)c(NS(=O)(=O)c4ccc5ncsc5c4)c3)c(=O)c2c1"
0.9

// fetch IC50 given entry "O=c1c2ccncc2nc(Cl)n1-c1ccc(Cl)c(NS(=O)(=O)c2ccccc2F)c1"
4.1

// fetch IC50 given entry "O=c1c2cc(Cl)ccc2nc(Cl)n1-c1ccc(Cl)c(NS(=O)(=O)c2ccccc2F)c1"
40

// fetch IC50 given entry "O=c1c2ccncc2nc(Cl)n1-c1ccc(Cl)c(NS(=O)(=O)c2cc(F)ccc2F)c1"
8.4

// fetch IC50 given entry "CS(=O)(=O)c1ccc2nc(Cl)n(-c3ccc(Cl)c(NS(=O)(=O)c4c(F)cccc4F)c3)c(=O)c2c1"
0.8

// fetch IC50 given entry "O=c1c2cc(Cl)ccc2nc(SCCOc2ccc(F)cc2)n1-c1ccc(Cl)c(NS(=O)(=O)c2ccccc2F)c1"
746

// fetch IC50 given entry "O=c1c2cc([N+](=O)[O-])ccc2nc(Cl)n1-c1ccc(Cl)c(NS(=O)(=O)c2ccccc2F)c1"
9.1

// fetch IC50 given entry "N#Cc1ccc2nc(Cl)n(-c3ccc(Cl)c(NS(=O)(=O)c4ccccc4F)c3)c(=O)c2c1"
9.7

// fetch IC50 given entry "O=c1c2ccncc2nc(Cl)n1-c1ccc(Cl)c(NS(=O)(=O)c2c(F)cccc2F)c1"
5.2

====

Please provide measured inhibition for the entries that follow.
tested on: Nucleotide-binding oligomerization domain-containing protein 1 (Mus musculus) (UniProt Q8BHB0)
Sequence (whole entry): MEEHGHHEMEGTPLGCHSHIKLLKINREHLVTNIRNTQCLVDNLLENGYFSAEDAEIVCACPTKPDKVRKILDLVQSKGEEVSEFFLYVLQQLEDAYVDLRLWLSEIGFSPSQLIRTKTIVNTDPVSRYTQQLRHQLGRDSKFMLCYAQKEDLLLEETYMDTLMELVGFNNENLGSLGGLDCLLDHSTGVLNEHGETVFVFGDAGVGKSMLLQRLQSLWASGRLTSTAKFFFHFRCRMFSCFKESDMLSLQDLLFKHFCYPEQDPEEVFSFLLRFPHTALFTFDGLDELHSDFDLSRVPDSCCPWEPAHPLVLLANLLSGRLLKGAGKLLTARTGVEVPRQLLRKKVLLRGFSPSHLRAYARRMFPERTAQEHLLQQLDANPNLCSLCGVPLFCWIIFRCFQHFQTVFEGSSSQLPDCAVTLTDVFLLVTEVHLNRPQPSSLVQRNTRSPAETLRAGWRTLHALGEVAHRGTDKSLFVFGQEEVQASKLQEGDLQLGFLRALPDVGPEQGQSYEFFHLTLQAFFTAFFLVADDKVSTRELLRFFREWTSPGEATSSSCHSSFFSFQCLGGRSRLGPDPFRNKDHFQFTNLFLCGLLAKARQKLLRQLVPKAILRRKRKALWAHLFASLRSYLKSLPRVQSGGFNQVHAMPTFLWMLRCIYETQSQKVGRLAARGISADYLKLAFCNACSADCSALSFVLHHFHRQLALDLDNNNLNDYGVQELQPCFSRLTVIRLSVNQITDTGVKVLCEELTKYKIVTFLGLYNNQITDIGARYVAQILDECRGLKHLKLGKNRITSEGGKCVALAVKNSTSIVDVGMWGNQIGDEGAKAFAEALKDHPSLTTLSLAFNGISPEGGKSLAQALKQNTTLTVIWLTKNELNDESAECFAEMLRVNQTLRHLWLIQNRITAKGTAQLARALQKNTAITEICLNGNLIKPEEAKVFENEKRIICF
experiment summary: Antagonist activity at mouse NOD1 expressed in HEK-Blue cells assessed as decrease in SEAP secretion at 1 uM incubated for 3 hrs followed by C12-iE-DAP stimulation for 20 hrs by spectrophotometry relative to control
Type: cell-based
experimental parameters: HEK-Blue mNOD1, time 23.0 hrs
Give the value in % but do not write % after it.

// fetch inhibition given entry "O=c1c2cc(Cl)ncc2nc(Cl)n1-c1ccc(Cl)c(NS(=O)(=O)N2CCCCC2)c1"
28.7

// fetch inhibition given entry "O=c1c2cc(OC(F)(F)F)ccc2nc(Cl)n1-c1ccc(Cl)c(NS(=O)(=O)c2c(F)cccc2F)c1"
36.5

// fetch inhibition given entry "O=c1c2ccncc2nc(C(F)(F)F)n1-c1ccc(Cl)c(NS(=O)(=O)c2ccccc2F)c1"
7.7

// fetch inhibition given entry "COc1cc2nc(Cl)n(-c3ccc(Cl)c(NS(=O)(=O)c4ccccc4F)c3)c(=O)c2cc1Cl"
39.3

// fetch inhibition given entry "O=c1c2ccncc2nc(C(F)F)n1-c1ccc(Cl)c(NS(=O)(=O)c2ccccc2F)c1"
19.1

// fetch inhibition given entry "O=c1c2cc(-c3cccc(Cl)c3)ccc2nc(Cl)n1-c1ccc(Cl)c(NS(=O)(=O)c2ccccc2F)c1"
15.6

// fetch inhibition given entry "N[C@@H](CCC(=O)N[C@@H](CSc1nc2cnccc2c(=O)n1-c1ccc(Cl)c(NS(=O)(=O)c2ccccc2F)c1)C(=O)NCC(=O)O)C(=O)O"
-1

====

experiment summary: MRT (infinity) in C57BL/6 mouse at 2 mg/kg, iv by LC-MS/MS analysis
Assay type: ADME, organism-based
experimental parameters: in vivo
property measured: MRT inf (min)
Give the value in min but do not write min after it.

// fetch MRT inf given entry "CS(=O)(=O)c1ccc2nc(Cl)n(-c3ccc(Cl)c(NS(=O)(=O)c4c(F)cccc4F)c3)c(=O)c2c1"
2.76

====

Please provide measured inhibition for the entries that follow.
tested on: Nucleotide-binding oligomerization domain-containing protein 1 (Mus musculus) (UniProt Q8BHB0)
experiment summary: Antagonist activity at mouse NOD1 expressed in HEK-Blue cells assessed as decrease in SEAP secretion at 1 uM incubated for 3 hrs followed by C12-iE-DAP stimulation for 20 hrs by spectrophotometry relative to control
Type: cell-based
experimental parameters: HEK-Blue mNOD1, filed as antagonist, time 23.0 hrs
Give the value in % but do not write % after it.

// fetch inhibition given entry "O=c1c2ccncc2nc(Cl)n1-c1ccc(Cl)c(NS(=O)(=O)c2ccccc2F)c1"
83.9

// fetch inhibition given entry "O=c1c2ccncc2nc(Cl)n1-c1ccc(Cl)c(NS(=O)(=O)c2ccc(F)cc2F)c1"
80.5

// fetch inhibition given entry "CS(=O)(=O)c1ccc2nc(Cl)n(-c3ccc(Cl)c(NS(=O)(=O)c4ccccc4F)c3)c(=O)c2c1"
88.9

// fetch inhibition given entry "O=c1c2cc(C(F)(F)F)ccc2nc(Cl)n1-c1ccc(Cl)c(NS(=O)(=O)c2c(F)cccc2F)c1"
65.3

// fetch inhibition given entry "CS(=O)(=O)c1ccc2nc(Cl)n(-c3ccc(Cl)c(NS(=O)(=O)c4ccc([N+](=O)[O-])cc4F)c3)c(=O)c2c1"
82.3

// fetch inhibition given entry "O=c1c2ccncc2nc(Cl)n1-c1ccc(Cl)c(NS(=O)(=O)c2c(F)cccc2F)c1"
83.7

// fetch inhibition given entry "O=c1c2ccncc2nc(Cl)n1-c1ccc(Cl)c(NS(=O)(=O)c2cc(F)c(F)cc2F)c1"
81.8

// fetch inhibition given entry "O=c1c2cc(Cl)ncc2nc(Cl)n1-c1ccc(Cl)c(NS(=O)(=O)c2ccc3ncsc3c2)c1"
85.7

// fetch inhibition given entry "Cn1cc(S(=O)(=O)Nc2cc(-n3c(Cl)nc4cnc(Cl)cc4c3=O)ccc2Cl)cn1"
77.6

// fetch inhibition given entry "N#Cc1ccc2nc(Cl)n(-c3ccc(Cl)c(NS(=O)(=O)c4ccccc4F)c3)c(=O)c2c1"
83.6

// fetch inhibition given entry "N#Cc1ccccc1S(=O)(=O)Nc1cc(-n2c(Cl)nc3cnc(Cl)cc3c2=O)ccc1Cl"
86.3

// fetch inhibition given entry "CS(=O)(=O)c1ccc2nc(Cl)n(-c3ccc(Cl)c(NS(=O)(=O)c4c(F)cccc4F)c3)c(=O)c2c1"
80.8

// fetch inhibition given entry "O=c1c2cc(Br)ccc2nc(Cl)n1-c1ccc(Cl)c(NS(=O)(=O)c2ccccc2F)c1"
40.5

// fetch inhibition given entry "O=c1c2cc(Cl)ccc2nc(Cl)n1-c1ccc(Cl)c(NS(=O)(=O)c2ccccc2F)c1"
42.7

// fetch inhibition given entry "O=c1c2cc(F)c(F)cc2nc(Cl)n1-c1ccc(Cl)c(NS(=O)(=O)c2ccccc2F)c1"
55.3

// fetch inhibition given entry "N#Cc1ccc2nc(Cl)n(-c3ccc(Cl)c(NS(=O)(=O)c4c(F)cccc4F)c3)c(=O)c2c1"
73.6

// fetch inhibition given entry "O=c1c2ccncc2nc(Cl)n1-c1ccc(Cl)c(NS(=O)(=O)c2cc(F)ccc2F)c1"
81.8

// fetch inhibition given entry "O=c1c2nc(Cl)ccc2nc(Cl)n1-c1ccc(Cl)c(NS(=O)(=O)c2ccccc2F)c1"
84.6

// fetch inhibition given entry "CS(=O)(=O)c1ccc2nc(Cl)n(-c3ccc(Cl)c(NS(=O)(=O)c4ccc5ncsc5c4)c3)c(=O)c2c1"
87.2

// fetch inhibition given entry "O=c1c2cc(Cl)ncc2nc(Cl)n1-c1ccc(Cl)c(NS(=O)(=O)c2ccc(Cl)s2)c1"
76.5

// fetch inhibition given entry "C=CS(=O)(=O)Nc1cc(-n2c(Cl)nc3cnc(Cl)cc3c2=O)ccc1Cl"
70.2

// fetch inhibition given entry "O=c1c2cc(Cl)cnc2nc(Cl)n1-c1ccc(Cl)c(NS(=O)(=O)c2ccccc2F)c1"
84.3

// fetch inhibition given entry "O=c1c2cc(Cl)ncc2nc(Cl)n1-c1ccc(Cl)c(NS(=O)(=O)c2ccccc2F)c1"
85.6

// fetch inhibition given entry "O=c1c2cc([N+](=O)[O-])ccc2nc(Cl)n1-c1ccc(Cl)c(NS(=O)(=O)c2ccccc2F)c1"
52.1

// fetch inhibition given entry "O=c1c2cc(Cl)ncc2nc(Cl)n1-c1ccc(Cl)c(NS(=O)(=O)c2c(F)cccc2F)c1"
87.5
